DETAILS: in methanol, 298.15 K
REPORTED METRIC: solubility (mole fraction)
// no unit string in output, number only

Can you look up the measured solubility (mole fraction) of COc1c(C(C)(C)C)cc([N+](=O)[O-])c(C)c1[N+](=O)[O-] for me?
0.00719

====

DETAILS: in ethanol, 288.15 K
REPORTED METRIC: solubility (mole fraction)
Respond numerically, and do not add a unit to the figure.

Recorded solubility (mole fraction) of COc1c(C(C)(C)C)cc([N+](=O)[O-])c(C)c1[N+](=O)[O-] , please.
0.00594

====

DETAILS: in DMF, 303.15 K
REPORTED METRIC: solubility (mole fraction)

Report solubility (mole fraction) for COc1c(C(C)(C)C)cc([N+](=O)[O-])c(C)c1[N+](=O)[O-] please.
0.221

====

DETAILS: in ethanol, 303.15 K
REPORTED METRIC: solubility (mole fraction)
Lab note: jot down the number only; don't add units.

Need solubility (mole fraction) of COc1c(C(C)(C)C)cc([N+](=O)[O-])c(C)c1[N+](=O)[O-] , thanks.
0.0131

====

DETAILS: in ethanol, 283.15 K
REPORTED METRIC: solubility (mole fraction)
Give only the figure.

What does the data say about its solubility (mole fraction)? Entry: COc1c(C(C)(C)C)cc([N+](=O)[O-])c(C)c1[N+](=O)[O-]
0.0046

====

DETAILS: in DMF, 313.15 K
REPORTED METRIC: solubility (mole fraction)
The reply should be a number, written without any unit.

Quick check: solubility (mole fraction) of COc1c(C(C)(C)C)cc([N+](=O)[O-])c(C)c1[N+](=O)[O-] ?
0.31

====

DETAILS: in n-butanol, 313.15 K
REPORTED METRIC: solubility (mole fraction)
Output spec: single numeric token, no unit.

GET /values?readout=solubility (mole fraction)&item= COc1c(C(C)(C)C)cc([N+](=O)[O-])c(C)c1[N+](=O)[O-]
0.0308

====

DETAILS: in DMAc, 318.15 K
REPORTED METRIC: solubility (mole fraction)

solubility (mole fraction) for COc1c(C(C)(C)C)cc([N+](=O)[O-])c(C)c1[N+](=O)[O-] ?
0.4

====

DETAILS: in n-propanol, 308.15 K
REPORTED METRIC: solubility (mole fraction)
Could you respond with only the numeric value?

Can you share its solubility (mole fraction)? I mean this molecule: COc1c(C(C)(C)C)cc([N+](=O)[O-])c(C)c1[N+](=O)[O-]
0.0182

====

DETAILS: in acetonitrile, 288.15 K
REPORTED METRIC: solubility (mole fraction)
Give the figure by itself; no unit, no explanation.

What value of solubility (mole fraction) has been recorded for this entry: COc1c(C(C)(C)C)cc([N+](=O)[O-])c(C)c1[N+](=O)[O-]
0.0608

====

DETAILS: in THF, 298.15 K
REPORTED METRIC: solubility (mole fraction)

What does the record list as solubility (mole fraction) for COc1c(C(C)(C)C)cc([N+](=O)[O-])c(C)c1[N+](=O)[O-] ?
0.264

====

DETAILS: in THF, 293.15 K
REPORTED METRIC: solubility (mole fraction)
In your answer, state the number alone without any accompanying words.

Give the measured solubility (mole fraction) of COc1c(C(C)(C)C)cc([N+](=O)[O-])c(C)c1[N+](=O)[O-] .
0.231

====

DETAILS: in DMF, 283.15 K
REPORTED METRIC: solubility (mole fraction)
Just the number, please.

Recorded solubility (mole fraction) for COc1c(C(C)(C)C)cc([N+](=O)[O-])c(C)c1[N+](=O)[O-] , please?
0.107

====

DETAILS: in DMF, 293.15 K
REPORTED METRIC: solubility (mole fraction)
The answer should be a number; do not append a unit.

Which value of solubility (mole fraction) has been reported for COc1c(C(C)(C)C)cc([N+](=O)[O-])c(C)c1[N+](=O)[O-] in the records?
0.154

====

DETAILS: in methanol, 293.15 K
REPORTED METRIC: solubility (mole fraction)
Number, no unit, nothing else.

Look up solubility (mole fraction): COc1c(C(C)(C)C)cc([N+](=O)[O-])c(C)c1[N+](=O)[O-]
0.00561

====

DETAILS: in DMF, 318.15 K
REPORTED METRIC: solubility (mole fraction)

Returns the measured solubility (mole fraction) for the input compound. Input: COc1c(C(C)(C)C)cc([N+](=O)[O-])c(C)c1[N+](=O)[O-]
0.372

====

DETAILS: in acetonitrile, 308.15 K
REPORTED METRIC: solubility (mole fraction)
Give your answer as a number; write no unit.

Entry under review: COc1c(C(C)(C)C)cc([N+](=O)[O-])c(C)c1[N+](=O)[O-] . Reported solubility (mole fraction)?
0.189

====

DETAILS: in methanol, 288.15 K
REPORTED METRIC: solubility (mole fraction)
# respond with the number and nothing more

Name the reported solubility (mole fraction) value associated with the molecule COc1c(C(C)(C)C)cc([N+](=O)[O-])c(C)c1[N+](=O)[O-]
0.00447

====

DETAILS: in acetonitrile, 278.15 K
REPORTED METRIC: solubility (mole fraction)

Fill in: solubility (mole fraction) of COc1c(C(C)(C)C)cc([N+](=O)[O-])c(C)c1[N+](=O)[O-] is ___
0.0355

====

DETAILS: in DMAc, 293.15 K
REPORTED METRIC: solubility (mole fraction)

Which solubility (mole fraction) value belongs to COc1c(C(C)(C)C)cc([N+](=O)[O-])c(C)c1[N+](=O)[O-] ?
0.189

====

DETAILS: in n-butanol, 303.15 K
REPORTED METRIC: solubility (mole fraction)
Keep the answer to the number alone.

What value of measured solubility (mole fraction) is listed for COc1c(C(C)(C)C)cc([N+](=O)[O-])c(C)c1[N+](=O)[O-] ?
0.0192

====

DETAILS: in DMAc, 288.15 K
REPORTED METRIC: solubility (mole fraction)
Reply: number alone, nothing else.

Can you look up the measured solubility (mole fraction) of COc1c(C(C)(C)C)cc([N+](=O)[O-])c(C)c1[N+](=O)[O-] for me?
0.162

====

DETAILS: in THF, 303.15 K
REPORTED METRIC: solubility (mole fraction)

For COc1c(C(C)(C)C)cc([N+](=O)[O-])c(C)c1[N+](=O)[O-] , what is its reported solubility (mole fraction)?
0.302

====

DETAILS: in DMAc, 283.15 K
REPORTED METRIC: solubility (mole fraction)
Kindly provide the number alone.

solubility (mole fraction) lookup needed for COc1c(C(C)(C)C)cc([N+](=O)[O-])c(C)c1[N+](=O)[O-] , thanks.
0.14

====

DETAILS: in ethanol, 308.15 K
REPORTED METRIC: solubility (mole fraction)
Please reply with the number alone, leaving off any unit.

Quick one: solubility (mole fraction) for COc1c(C(C)(C)C)cc([N+](=O)[O-])c(C)c1[N+](=O)[O-] ?
0.0164

====

DETAILS: in ethanol, 318.15 K
REPORTED METRIC: solubility (mole fraction)
Give a plain numeric answer without units written out.

Can you share its solubility (mole fraction)? I mean this compound: COc1c(C(C)(C)C)cc([N+](=O)[O-])c(C)c1[N+](=O)[O-]
0.0276

====

DETAILS: in n-butanol, 318.15 K
REPORTED METRIC: solubility (mole fraction)
Please give the numeric answer without any surrounding text.

May I ask what solubility (mole fraction) has been recorded for COc1c(C(C)(C)C)cc([N+](=O)[O-])c(C)c1[N+](=O)[O-] ?
0.0405

====

DETAILS: in DMAc, 313.15 K
REPORTED METRIC: solubility (mole fraction)
Just the number.

Fill in: solubility (mole fraction) of COc1c(C(C)(C)C)cc([N+](=O)[O-])c(C)c1[N+](=O)[O-] is ___
0.347

====

DETAILS: in THF, 308.15 K
REPORTED METRIC: solubility (mole fraction)
The answer should be a number; do not append a unit.

Bench note: what solubility (mole fraction) did COc1c(C(C)(C)C)cc([N+](=O)[O-])c(C)c1[N+](=O)[O-] show?
0.342

====

DETAILS: in n-propanol, 283.15 K
REPORTED METRIC: solubility (mole fraction)

solubility (mole fraction) for COc1c(C(C)(C)C)cc([N+](=O)[O-])c(C)c1[N+](=O)[O-] ?
0.00463
